Tested on: H1299 cells
Assay: CCK8 cell viability, H1299
Type: cell-based, Human
Details: H1299, 25 μM, 48 h
Kindly state Cell viability for each of the entries shown.
# number then unit; no other words

# input Dear colleague, please send me the reported Cell viability for COc1c2n(cc(C(=O)Nc3cccc(-c4cn(-c5ccccc5I)nn4)c3)c1=O)CC1OCC(C)N1C2=O (stereo not shown) [Compound 5o] when you can.
# output 120.83%

# input // fetch Cell viability given entry COc1c2n(cc(C(=O)Nc3cccc(-c4cn(-c5ccccc5Cl)nn4)c3)c1=O)CC1OCC(C)N1C2=O (stereo not shown) [Compound 5s]
# output 127.14%

# input Name the recorded Cell viability of the molecule listed here: COc1c2n(cc(C(=O)Nc3cccc(-c4cn(-c5cccc(C(F)(F)F)c5)nn4)c3)c1=O)CC1OCC(C)N1C2=O (stereo not shown) [Compound 5h]
# output 114.98%

# input Give the reported Cell viability for this molecule. COc1c2n(cc(C(=O)Nc3cccc(-c4cn(-c5cccc(F)c5)nn4)c3)c1=O)CC1OCC(C)N1C2=O (stereo not shown) [Compound 5f]
# output 114.19%
